Test system: CCRIS mutagenicity, Ames/micronucleus/aberration tests
Test: CCRIS mutagenicity studies
Conditions: Test System: AMES SALMONELLA TYPHIMURIUM; Strain/Indicator: TA98; Metabolic Activation: NONE; Method: STANDARD PLATE
Source text: The CCRIS database contains chemical records with carcinogenicity, mutagenicity, tumor promotion, and tumor inhibition test results. It was developed by the National Cancer Institute (NCI). Data are derived from studies cited in primary journals, current awareness tools, NCI reports, and other sources. Test results have been reviewed by experts in carcinogenesis and mutagenesis. CCRIS provides historical information from the years 1985 - 2011. It is no longer updated. […]
Calls of active or inactive are those of the source. The rule behind the calls is not given here.
Please reply with one of these outcomes: Y (active), N (inactive)

Consider the worked cases shown below.
Cc1occc(=O)c1[O-].Cc1occc(=O)c1[O-].Cc1occc(=O)c1[O-].[Al+3]; N
CC(C)(O)CCc1ccc(O)c2c(=O)c3c(O)c4c(cc3oc12)O[C@H]1OC=C[C@@]41O; N
O=C(O)c1cc(I)cc2cccnc12; N
CN(C)CCCCl; N

We next turn to a different compound, shown below.
Prompt line: Please state the recorded outcome for this compound: `O=[N+]([O-])c1ccc(-c2nc(N(CCO)CCO)c3ccccc3n2)s1`
Response line: Y

* * *

Test system: CCRIS mutagenicity, Ames/micronucleus/aberration tests
Experiment: CCRIS mutagenicity studies
Settings: Test System: AMES SALMONELLA TYPHIMURIUM; Strain/Indicator: TA97; Metabolic Activation: RAT, LIVER, S-9, AROCLOR 1254 (10%); Method: PREINCUBATION
Text: The CCRIS database contains chemical records with carcinogenicity, mutagenicity, tumor promotion, and tumor inhibition test results. It was developed by the National Cancer Institute (NCI). Data are derived from studies cited in primary journals, current awareness tools, NCI reports, and other sources. Test results have been reviewed by experts in carcinogenesis and mutagenesis. CCRIS provides historical information from the years 1985 - 2011. It is no longer updated. […]
Calls of active or inactive are those of the source. No rule for the calls is given here.
Please reply with one of these outcomes: Y (active), N (inactive)

Consider the worked cases shown below.
O=C1CCC(=O)O1; N
[O]=[Mo](=[O])=[O]; N
O=C/C=C/c1ccco1; N
Cc1cc(C)cc(N)c1; N

Prompt line: Please state the recorded outcome for this molecule: `OC(CCl)CCl`
Response line: N

Prompt line: Entry OCC(Cl)CCl (stereo not drawn) please
Response line: Y

* * *

Tested on: CCRIS mutagenicity, Ames/micronucleus/aberration tests
Assay: CCRIS mutagenicity studies
Conditions: Test System: AMES SALMONELLA TYPHIMURIUM; Strain/Indicator: TA98; Metabolic Activation: RAT, LIVER, S-9, AROCLOR 1254; Method: PREINCUBATION
Excerpt: The CCRIS database contains chemical records with carcinogenicity, mutagenicity, tumor promotion, and tumor inhibition test results. It was developed by the National Cancer Institute (NCI). Data are derived from studies cited in primary journals, current awareness tools, NCI reports, and other sources. Test results have been reviewed by experts in carcinogenesis and mutagenesis. CCRIS provides historical information from the years 1985 - 2011. It is no longer updated. […]
The source made the active and inactive calls. No rule for the calls is given here. Where a SMILES comes first, the peptide text is derived from it. [ ]: non-standard residue; d: D form. ξ: configuration not given here. Trp(1-OMe) = COn1cc(C[C@H](N)C(=O)O)c2ccccc21; Asu = N[C@@H](CCCCCC(=O)O)C(=O)O; Ile(3ξ) = CCC(C)[C@H](N)C(=O)O; dPip = O=C(O)[C@H]1CCCCN1
Measured Attribute: mutagenic call

Please review the entries below; each comes with its answer.
CCc1ccccc1; inactive; negative
OCCNCCO; inactive; negative
c1ccc(Oc2ccccc2)cc1; inactive; negative
COc1cc(OC)c2c(c1)O[C@@H]1OC=C[C@H]21; active; positive
Nc1nc(=O)n([C@H]2C[C@H](O)[C@@H](CO)O2)cc1I; inactive; negative

# map each compound to its mutagenic call
1. ClC1(Cl)C2(Cl)C3(Cl)C4(Cl)C(Cl)(Cl)C5(Cl)C3(Cl)C1(Cl)C5(Cl)C24Cl (stereo unspecified)
2. COc1ccc2nc(N)[nH]c2c1
3. CCC(C)[C@@H]1NC(=O)[C@H](Cc2cn(OC)c3ccccc23)NC(=O)[C@H](CCCCCC(=O)OC)NC(=O)[C@H]2CCCCN2C1=O (stereo partly specified) (cyclo([Asu](OMe)[Trp(1-OMe)][Ile(3ξ)][dPip]))
4. Oc1c(Cl)c(Cl)c(Cl)c(Cl)c1Cl
5. Cc1cc2ncccc2c2nc(N)n(C)c12

Response line:
1. inactive; negative
2. inactive; negative
3. inactive; negative
4. inactive; negative
5. active; positive
